Data provenance: PubChem BioAssay AID248

Tested on: L1210 leukemia ip in BDF1 mice, survival T/C
Assay: NCI In Vivo Anticancer Drug Screen. Data for tumor model L1210 Leukemia (intraperitoneal) in B6D2F1 (BDF1) mice
Conditions: endpoint: mean survival time; dose: 50.0 mg/kg/injection; schedule: Q01DX001 (ip); vehicle: saline with Tween-80
Inconclusive results and toxic doses are left out. Cut-off read from the data, not from the text of the source: active = T/C of 150% or more; inactive = T/C below 125%.
Allowed answers: active, inactive

# count of solved cases: 3
Recorded test call requested for C[C@@H]1CCC[C@@H](NC(=O)N(CCCl)N=O)C1
active

Okay, and C=C1CC(=O)N(c2ccc(Cl)cc2)C1=O ?
inactive

Okay, and COc1cc(C=O)cc(C=O)c1O ?
inactive

Let us examine a further case.
Recorded test call requested for Cc1ccc(C)c(Cl)c1
inactive

###

Tested on: L1210 leukemia ip in BDF1 mice, survival T/C
Assay: NCI In Vivo Anticancer Drug Screen. Data for tumor model L1210 Leukemia (intraperitoneal) in B6D2F1 (BDF1) mice
Conditions: endpoint: mean survival time; dose: 200.0 mg/kg/injection; schedule: Q04DX003 (ip); vehicle: Klucel (hydroxypropylcellulose) (HPC); higher = longer survival
Toxic doses and inconclusive results are not listed.
quantity: T/C

For orientation, consider the following solved cases.
Please give the measured T/C for this compound: Cc1ccc2ccccc2c1CC(=O)O
96 % of control

Okay, and c1ccc2c(B(c3cccc4ccccc34)c3cccc4ccccc34)cccc2c1 ?
97 % of control

Okay, and COc1ccc(-c2nc(SCc3ccccc3)[nH]c(=O)c2CCO)cc1 ?
88 % of control

Okay, and Cc1cc(N(CCCCl)CCCCl)ccc1C=Nc1cc(Br)c(O)c(Br)c1 ?
95 % of control

Okay, and CC(C)NNC(=O)c1ccc(Cl)cc1 ?
86 % of control

Now consider the entry below.
Please give the measured T/C for this compound: C/C(=N\N)C(=O)c1ccccc1
94 % of control

###

System: L1210 leukemia ip in BDF1 mice, survival T/C
Experiment: NCI In Vivo Anticancer Drug Screen. Data for tumor model L1210 Leukemia (intraperitoneal) in B6D2F1 (BDF1) mice
Details: endpoint: mean survival time; dose: 100.0 mg/kg/injection; schedule: Q04DX003 (ip); vehicle: saline; higher = longer survival
Inconclusive results and toxic doses are left out.
quantity: T/C

For orientation, consider the following solved cases.
Please give the measured T/C for this molecule: [NH-]C(CCC(N)=O)C(=O)O.[NH-]C(CCC(N)=O)C(=O)O.[Pd+2] (stereo not drawn)
98 % of control

Okay, and CC[N+](C)(CC)CCNC(=O)C(c1ccccc1)c1ccccc1 ?
100 % of control

Now consider the entry below.
Please give the measured T/C for this molecule: N#CCCOCCOCCC#N
109 % of control

###

System: L1210 leukemia ip in BDF1 mice, survival T/C
Assay: NCI In Vivo Anticancer Drug Screen. Data for tumor model L1210 Leukemia (intraperitoneal) in B6D2F1 (BDF1) mice
Settings: endpoint: mean survival time; dose: 100.0 mg/kg/injection; schedule: Q04DX003 (ip); vehicle: Klucel (hydroxypropylcellulose) (HPC); higher = longer survival
Inconclusive results and toxic doses are left out.
Listed here: items and their measured T/C.

For orientation, consider the following solved cases.
Please give the measured T/C for this compound: CC(C)CCCC(C)C1CCC2C3CC=C4CC(OC(=O)CCCC5CCCCC5)CCC4(C)C3CCC12C (stereo unspecified)
94 % of control

Okay, and N#Cc1sc2ccccc2c1CBr ?
100 % of control

Okay, and O=C(Cl)c1ccc(C(Cl)(Cl)Cl)cc1 ?
95 % of control

Others:
Please give the measured T/C for this compound: CCCCCCCCCCCCCCCCCCNC(=O)Nc1cccc(C)c1C
87 % of control

Okay, and O=C(C[n+]1ccccc1)c1ccc(S(=O)(=O)c2ccccc2)cc1 ?
94 % of control

Okay, and N#Cc1cncc(-c2ccccc2)c1 ?
89 % of control
